Every entry's value here was drawn from patent US4228162A.

experiment: Solubility of aspirin in propylene glycol, polyethylene glycol-400 and dimethyl isosorbide; assay type: physicochemical; conditions: dimethyl isosorbide, organic solvent or mixture
QUANTITY: solubility at 24 h (mg/mL)
A number alone suffices; assume mg/mL.

Look at this compound and give its reported solubility at 24 h. CC(=O)Oc1ccccc1C(=O)O
280
